TEST NAME: Cereulide in organs and tissues, SIDA-MS
Format: in vivo, pig
REPORTED CONDITIONS: pig, lymph nodes, 150 ug/kg; single oral dose 150 μg kg^-1, necropsy after 48 h, SIDA-MS; read-out: Cereulide concentration in lymph nodes, average

MOLECULE: CC(C)C[C@H]1OC(=O)[C@H](C(C)C)NC(=O)[C@H](C(C)C)OC(=O)[C@@H](C)NC(=O)[C@@H](CC(C)C)OC(=O)[C@H](C(C)C)NC(=O)[C@H](C(C)C)OC(=O)[C@@H](C)NC(=O)[C@@H](CC(C)C)OC(=O)[C@H](C(C)C)NC(=O)[C@H](C(C)C)OC(=O)[C@@H](C)NC1=O [cereulide]
tissue level at time at 48 h: 2.82 ng/g
